# Tested on: LC-2/ad cells (RET-CCDC6 fusion-driven NSCLC)
# PROTOCOL: Cell viability, RET-driven cell line
# Assay type: cell-based
# MEASUREMENT SETUP: read-out: LC-2/ad (EC50)
pEC50: −log10 of the molar value.
TEST READOUT: pEC50

> print(dat)
   structure.smiles.string  test.readout  quantitative.readout
1        Nc1ncnc2[nH]ncc12         pEC50                  5.83

----------
# STUDY TARGET: TRKA (Homo sapiens)
# Sequence (P04629 33-796): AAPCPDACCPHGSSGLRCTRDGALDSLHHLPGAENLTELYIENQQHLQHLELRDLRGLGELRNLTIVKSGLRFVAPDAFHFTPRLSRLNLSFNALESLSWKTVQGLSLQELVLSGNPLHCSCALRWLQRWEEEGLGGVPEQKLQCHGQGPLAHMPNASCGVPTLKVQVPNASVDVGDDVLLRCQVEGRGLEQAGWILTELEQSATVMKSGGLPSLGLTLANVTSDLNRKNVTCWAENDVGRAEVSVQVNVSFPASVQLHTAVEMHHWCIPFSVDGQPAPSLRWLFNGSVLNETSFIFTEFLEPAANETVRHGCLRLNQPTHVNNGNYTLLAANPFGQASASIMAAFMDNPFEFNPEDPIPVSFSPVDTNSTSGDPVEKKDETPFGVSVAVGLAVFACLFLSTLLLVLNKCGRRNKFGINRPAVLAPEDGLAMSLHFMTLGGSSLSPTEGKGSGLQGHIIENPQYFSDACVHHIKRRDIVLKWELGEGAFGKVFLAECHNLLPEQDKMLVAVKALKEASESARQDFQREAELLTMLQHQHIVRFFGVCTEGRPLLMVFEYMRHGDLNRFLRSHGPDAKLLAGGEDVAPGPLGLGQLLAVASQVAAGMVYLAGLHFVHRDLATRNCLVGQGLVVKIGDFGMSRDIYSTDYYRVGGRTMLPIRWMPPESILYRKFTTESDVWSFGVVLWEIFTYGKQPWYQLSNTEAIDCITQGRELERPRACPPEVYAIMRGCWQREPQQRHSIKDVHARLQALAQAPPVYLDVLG
TEST READOUT: IC50

> print(dat)
   structure.smiles.string  test.readout   result
1        Nc1ncnc2[nH]ncc12          IC50  57.1 µM

----------
# System: KM-12 cells
# PROTOCOL: Cell viability, TRKA-driven matched control
# Assay type: cell-based
# MEASUREMENT SETUP: read-out: KM-12 (EC50)
TEST READOUT: EC50 (nM)

> print(dat)
                                   compound  quantitative.readout
1  Nc1ncnc2[nH]ncc12 [fragment 1, pyrazoloadenine]                  1730

----------
# STUDY TARGET: UniProt:P07949
# Sequence (P07949 29-1114): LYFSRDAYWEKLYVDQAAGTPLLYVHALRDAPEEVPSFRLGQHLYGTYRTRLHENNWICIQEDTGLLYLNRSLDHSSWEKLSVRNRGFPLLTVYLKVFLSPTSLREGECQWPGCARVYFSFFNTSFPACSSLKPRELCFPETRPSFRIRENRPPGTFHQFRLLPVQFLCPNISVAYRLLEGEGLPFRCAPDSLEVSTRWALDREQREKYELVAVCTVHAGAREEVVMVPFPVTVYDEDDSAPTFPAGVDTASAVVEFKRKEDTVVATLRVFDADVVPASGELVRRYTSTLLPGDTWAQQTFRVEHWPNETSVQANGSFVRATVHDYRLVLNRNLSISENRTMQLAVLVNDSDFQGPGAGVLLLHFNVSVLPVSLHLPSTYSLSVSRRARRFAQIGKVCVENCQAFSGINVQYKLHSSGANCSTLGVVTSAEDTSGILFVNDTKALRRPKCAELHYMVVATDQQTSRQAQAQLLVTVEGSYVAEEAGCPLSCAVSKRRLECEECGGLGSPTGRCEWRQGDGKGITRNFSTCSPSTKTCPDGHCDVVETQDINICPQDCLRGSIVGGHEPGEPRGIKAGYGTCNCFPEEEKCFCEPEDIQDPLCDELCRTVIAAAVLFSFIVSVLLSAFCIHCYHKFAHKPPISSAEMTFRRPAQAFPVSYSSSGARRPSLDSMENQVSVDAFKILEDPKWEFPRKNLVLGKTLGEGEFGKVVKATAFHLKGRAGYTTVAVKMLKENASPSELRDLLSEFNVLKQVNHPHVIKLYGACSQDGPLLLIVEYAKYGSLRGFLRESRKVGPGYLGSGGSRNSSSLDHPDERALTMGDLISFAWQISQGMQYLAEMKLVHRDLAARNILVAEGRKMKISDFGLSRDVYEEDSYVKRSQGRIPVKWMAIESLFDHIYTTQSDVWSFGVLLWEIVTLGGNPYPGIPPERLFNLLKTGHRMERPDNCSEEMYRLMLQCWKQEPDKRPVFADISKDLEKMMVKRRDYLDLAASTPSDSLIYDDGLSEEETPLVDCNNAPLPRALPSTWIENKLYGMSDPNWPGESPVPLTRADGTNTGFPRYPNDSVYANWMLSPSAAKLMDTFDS
pIC50: −log10 of the molar value.
TEST READOUT: pIC50

> print(dat)
                                   molecule    study.target  quantitative.readout
1         Cn1nc(-c2ccccc2)c2c(N)ncnc21 [4a]  UniProt:P07949                  5.17
2  Nc1ncnc2[nH]ncc12 [fragment 1, pyrazoloadenine]  UniProt:P07949                  5.04

These measurements were taken from paper PMC9969764.
